assay: Corneal permeability in a diffusion chamber; assay type: in vitro ADME, rabbit; details: rabbit eye cornea, diffusion chamber, epithelium side to endothelium side; read-out: Permeability coefficient Papp
Endpoint: Papp (×10⁻⁶ cm/s)

Molecule: CCC(=O)OC[C@H](Cc1cncn1C)[C@H](CC)C(=O)OCc1ccc(COC(=O)[C@@H](CC)[C@H](COC(=O)CC)Cc2cncn2C)cc1
Readout Units: ×10⁻⁶ cm/s
Papp: 30.5

I: CCCCC(=O)OC[C@H](Cc1cncn1C)[C@H](CC)C(=O)OCc1ccc(COC(=O)[C@@H](CC)[C@H](COC(=O)CCCC)Cc2cncn2C)cc1
II: CCCCC(=O)OC[C@H](Cc1cncn1C)[C@H](CC)C(=O)OCc1ccccc1 [valeryl, benzyl, reference compound]
stdin: Lab log: flag the item ( I or II ) with the smaller Papp figure. # respond with the chosen item's label
stdout: II
(II: 11.5 ×10⁻⁶ cm/s, I: 18.2 ×10⁻⁶ cm/s)

====

Experiment: Enzyme hydrolysis in plasma/buffer pH 7.4 mixture (80%-20%)
Type: in vitro ADME
Details: plasma/buffer pH 7.4 (80%-20%), 37°C
Protocol: The half-times of enzyme hydrolysis of the novel bispilocarpates according to the invention and of known pilocarpic acid diesters were determined in a plasma/buffer pH 7.4-mixture (80%-20%) at 37°C. The degradation constants (k) for the compounds tested and determined from the plot showing the logarithm of remaining diester as a function of time and the half-lives T½ are shown in the Table II below. […]
Endpoint: Degradation coefficient (k) in plasma (80%), 37°C (min⁻¹)

Answered cases to consult:
Molecule: CC[C@H](C(=O)OCc1ccc(COC(=O)[C@@H](CC)[C@H](COC(=O)c2ccccc2)Cc2cncn2C)cc1)[C@H](COC(=O)c1ccccc1)Cc1cncn1C
Readout Units: min⁻¹
Test Result: 0.00737
//
Molecule: CCC(=O)OC[C@H](Cc1cncn1C)[C@H](CC)C(=O)OCc1ccccc1 [propionyl, benzyl, reference compound]
Readout Units: min⁻¹
Test Result: 0.108

P: CC[C@H](C(=O)OCc1ccc(COC(=O)[C@@H](CC)[C@H](COC(=O)C2CC2)Cc2cncn2C)cc1)[C@H](COC(=O)C1CC1)Cc1cncn1C
Q: CCCCC(=O)OC[C@H](Cc1cncn1C)[C@H](CC)C(=O)OCc1ccccc1 [valeryl, benzyl, reference compound]
stdin: Rank P against Q by their Degradation coefficient (k) in plasma (80%), 37°C values and give the higher one. The response must carry the label of the picked entry.
stdout: Q
(Q: 0.07876 min⁻¹, P: 0.04998 min⁻¹)

====

experiment: Enzyme hydrolysis in plasma/buffer pH 7.4 mixture (80%-20%); type: in vitro ADME; settings: 80% plasma/buffer, pH 7.4
Endpoint: half-life (h)

Compound: CC[C@H](C(=O)OCc1ccccc1)[C@H](COC(=O)c1ccc(C(=O)OC[C@H](Cc2cncn2C)[C@H](CC)C(=O)OCc2ccccc2)cc1)Cc1cncn1C
half-life / h: 3.58

I: CC[C@H](C(=O)OCc1ccccc1)[C@H](COC(=O)/C=C/C(=O)OC[C@H](Cc1cncn1C)[C@H](CC)C(=O)OCc1ccccc1)Cc1cncn1C [Example 18, O,O'-Fumaroyl (dibenzyl) bispilocarpate]
II: CC[C@H](C(=O)OCc1ccccc1)[C@H](COC(=O)CCCCC(=O)OC[C@H](Cc1cncn1C)[C@H](CC)C(=O)OCc1ccccc1)Cc1cncn1C [Example 15, O,O'-Adipoyl (dibenzyl) bispilocarpate]
stdin: Select the item with the higher value of half-life from the options I and II listed. The response must carry the label of the picked entry.
stdout: I

====

test: Stability of the compounds: buffer hydrolysis (half-times, shelf-life); type: physicochemical; details: buffer pH 9.00, ionic strength 0.5, 37°C; read-out: Half-times in buffers at 37°C, T½, pH 9.00 (converted)
Endpoint: half-life (min)

a: CC[C@H](C(=O)OCc1ccccc1COC(=O)[C@@H](CC)[C@H](CO)Cc1cncn1C)[C@H](CO)Cc1cncn1C
b: CC[C@H](C(=O)OCCCOC(=O)[C@@H](CC)[C@H](CO)Cc1cncn1C)[C@H](CO)Cc1cncn1C
c: CC[C@H](C(=O)OCc1ccccc1)[C@H](COC(=O)CCCC(=O)OC[C@H](Cc1cncn1C)[C@H](CC)C(=O)OCc1ccccc1)Cc1cncn1C [Example 16, O,O'-Glutaryl (dibenzyl) bispilocarpate]
stdin: Sort by half-life with smallest numbers at the start of the list. Answer by naming the labels in the order asked.
stdout: a, b, c

====

assay: Stability of the compounds: buffer hydrolysis (half-times, shelf-life); format: physicochemical; conditions: buffer pH 6.00, ionic strength 0.5, 37°C; read-out: Half-times in buffers at 37°C, T½, pH 6.00 (converted)
Endpoint: half-life (days)

Some compounds with known half-life results, for comparison:
Compound: CC[C@H](C(=O)OCc1ccc(COC(=O)[C@@H](CC)[C@H](CO)Cc2cncn2C)cc1)[C@H](CO)Cc1cncn1C
Endpoint: half-life
Test Result: 0.0951
--
Compound: CCCC(=O)OC[C@H](Cc1cncn1C)[C@H](CC)C(=O)OCc1ccc(COC(=O)[C@@H](CC)[C@H](COC(=O)CCC)Cc2cncn2C)cc1
Endpoint: half-life
Test Result: 46.4
--
Compound: CC[C@H](C(=O)OCc1ccc(COC(=O)[C@@H](CC)[C@H](COC(=O)C2CC2)Cc2cncn2C)cc1)[C@H](COC(=O)C1CC1)Cc1cncn1C
Endpoint: half-life
Test Result: 352
--
Compound: CC[C@H](C(=O)OCc1ccccc1)[C@H](COC(=O)c1ccc(C(=O)OC[C@H](Cc2cncn2C)[C@H](CC)C(=O)OCc2ccccc2)cc1)Cc1cncn1C
Endpoint: half-life
Test Result: 38

a: CC[C@H](C(=O)OCc1ccccc1)[C@H](COC(=O)c1ccccc1)Cc1cncn1C [benzoyl, benzyl, reference compound]
b: CC[C@H](C(=O)OCCCCOC(=O)[C@@H](CC)[C@H](CO)Cc1cncn1C)[C@H](CO)Cc1cncn1C
stdin: Consider entries a and b . Which has the numerically lower half-life? Refer to your chosen item by its label in the answer.
stdout: b
(b: 0.789 days, a: 203 days)

====

Assay: Stability of the compounds: buffer hydrolysis (half-times, shelf-life)
Format: physicochemical
Details: buffer, pH 4.2; 50 °C, pH 4.20; read-out: Chemical hydrolysis t½, pH 4.20 (converted)
Procedure: The stability of the test compounds were tested with buffer hydrolyses. The ionic strength (µ) of the buffers was 0.5, the pH-values used 4.2, 6.0, 7.4 and 9.0 and the temperatures used 37°C, 50 °C, 60 °C and 70 °C. […] From the degradation constant (k) obtained at the desired temperature the shelf-life-time t10% (t10% = 0.104/k) which indicates the time during which 10% of the drug has degraded may be calculated. […]
Endpoint: half-life (days)

I: CC[C@H](C(=O)OCCCCCCOC(=O)[C@@H](CC)[C@H](COC(=O)C1CC1)Cc1cncn1C)[C@H](COC(=O)C1CC1)Cc1cncn1C
II: CC[C@H](C(=O)OCCCCCOC(=O)[C@@H](CC)[C@H](COC(=O)C1CC1)Cc1cncn1C)[C@H](COC(=O)C1CC1)Cc1cncn1C
stdin: Please indicate which entry, I or II , has the lower recorded half-life value. Refer to your chosen entry by its label in the reply.
stdout: I
(I: 134 days, II: 193 days)

====

assay: Lipophilicity: partition coefficient (octanol-buffer) and capacity factor by RP-HPLC; assay type: physicochemical; settings: rp-hplc; reverse phase HPLC, 22°C; read-out: Capacity factor (22°C) k' (converted)
Endpoint: chromatographic logP

Compound: CC[C@H](C(=O)OCCCCOC(=O)[C@@H](CC)[C@H](CO)Cc1cncn1C)[C@H](CO)Cc1cncn1C [Example 7]
chromatographic logP: -0.182

Compound: CC[C@H](C(=O)OCc1ccc(COC(=O)[C@@H](CC)[C@H](COC(C)=O)Cc2cncn2C)cc1)[C@H](COC(C)=O)Cc1cncn1C [Example 9]
chromatographic logP: 0.146

Compound: CC[C@H](C(=O)OCc1ccccc1)[C@H](COC(=O)CCC(=O)OC[C@H](Cc1cncn1C)[C@H](CC)C(=O)OCc1ccccc1)Cc1cncn1C [Example 17, O,O'-Succinyl (dibenzyl) bispilocarpate]
chromatographic logP: 0.539

Compound: CC[C@H](C(=O)OCCCCCCCOC(=O)[C@@H](CC)[C@H](CO)Cc1cncn1C)[C@H](CO)Cc1cncn1C [Example 4]
chromatographic logP: 0.0518

A: CC[C@H](C(=O)OCCCOC(=O)[C@@H](CC)[C@H](CO)Cc1cncn1C)[C@H](CO)Cc1cncn1C [Example 8]
B: CC[C@H](C(=O)OCc1ccc(COC(=O)[C@@H](CC)[C@H](COC(=O)C2CC2)Cc2cncn2C)cc1)[C@H](COC(=O)C1CC1)Cc1cncn1C [Example 13]
stdin: Among A and B , whose measured chromatographic logP is the smaller figure? When you have decided, please share the label of that item.
stdout: A

====

assay: Enzyme hydrolysis in plasma/buffer pH 7.4 mixture (80%-20%); assay type: in vitro ADME; conditions: pH 7.4
Endpoint: Degradation coefficient (k) in plasma (80%), 37°C (min⁻¹)

A: CC[C@H](C(=O)OCc1ccc(COC(=O)[C@@H](CC)[C@H](COC(C)=O)Cc2cncn2C)cc1)[C@H](COC(C)=O)Cc1cncn1C [Example 9]
B: CC[C@H](C(=O)OCc1ccccc1)[C@H](COC(=O)CCC(=O)OC[C@H](Cc1cncn1C)[C@H](CC)C(=O)OCc1ccccc1)Cc1cncn1C [Example 17, O,O'-Succinyl (dibenzyl) bispilocarpate]
stdin: Which of the two gives a bigger number for Degradation coefficient (k) in plasma (80%), 37°C: A or B ? Answer with the label corresponding to your selection.
stdout: A
(A: 0.0737 min⁻¹, B: 0.00368 min⁻¹)

A: CC[C@H](C(=O)OCc1ccccc1)[C@H](COC(=O)CCCCC(=O)OC[C@H](Cc1cncn1C)[C@H](CC)C(=O)OCc1ccccc1)Cc1cncn1C [Example 15, O,O'-Adipoyl (dibenzyl) bispilocarpate]
B: CC[C@H](C(=O)OCc1ccccc1)[C@H](COC(=O)CCCC(=O)OC[C@H](Cc1cncn1C)[C@H](CC)C(=O)OCc1ccccc1)Cc1cncn1C [Example 16, O,O'-Glutaryl (dibenzyl) bispilocarpate]
stdin: Choose between A and B : whose measured Degradation coefficient (k) in plasma (80%), 37°C value is numerically larger? Give the chosen item's label as your response.
stdout: B
